- Tested on: MRC-5 cell line (human lung fibroblast)
- Assay Details: Cytotoxicity in healthy cell line, alamarBlue assay
- Type: cell-based
- Condition Context: MRC5, 72 h, error reported as σ
pIC50: −log10 of the molar value.

Chemical Structure | Study System | pIC50
c1ccc(N(c2ccccc2)c2ccc(C(c3c[nH]c4ccccc34)c3c[nH]c4ccccc34)cc2)cc1 | MRC-5 cell line (human lung fibroblast) | 4.47
CN(C)c1ccc(C(c2c[nH]c3ccccc23)c2c[nH]c3ccccc23)c2ccccc12 | MRC-5 cell line (human lung fibroblast) | 4.02
Oc1cccc2ccc(C(c3c[nH]c4ccccc34)c3c[nH]c4ccccc34)nc12 | MRC-5 cell line (human lung fibroblast) | 5.49
